System: RXF 393 renal
Assay: NCI tumour cell line growth inhibition, 48 h
ASSAY_METRIC: TGI

- COMPOUND: "CCCCCCCCCCCCCCCc1cc(O)ccc1N"
  MEASUREMENT_TARGET: "RXF 393 renal"
  TGI: "> 84.6 µM"
- COMPOUND: "O=S1(=O)CCN(Cc2ccccn2)CC1"
  MEASUREMENT_TARGET: "RXF 393 renal"
  TGI: "> 100 µM"
- COMPOUND: "N#CCC(=O)Nn1c(CC#N)nnc1Cc1ccccc1"
  MEASUREMENT_TARGET: "RXF 393 renal"
  TGI: "> 100 µM"
- COMPOUND: "Cc1cccc(Nc2cn(COCc3ccccc3)c(=O)[nH]c2=O)c1"
  MEASUREMENT_TARGET: "RXF 393 renal"
  TGI: "> 100 µM"
- COMPOUND: "O=P(O)(O)C(CSc1ccccc1)P(=O)(O)O"
  MEASUREMENT_TARGET: "RXF 393 renal"
  TGI: "> 100 µM"

Challenge: Consider the compound O=C1c2ccccc2C(=O)N1c1ccc(S(=O)(=O)Nc2ncccn2)cc1 and give its measured TGI.
Response given: > 100 µM

Challenge: # TGI lookup, item COc1cccc(/C=N\Nc2ccc([N+](=O)[O-])cn2)c1O
Response given: 12.7 µM

Challenge: Looking for the measured TGI of COc1ccc(C(c2ccc(C(C)C)cc(=O)c2O)c2c(O)cc3oc(-c4ccccc4)cc(=O)c3c2O)cc1 (stereo unspecified) , can you help?
Response given: 34.2 µM

Challenge: Any idea what its TGI is? The compound is NC1C/C(=N\O)c2c(I)sc(I)c21 (stereo unspecified)
Response given: 35.8 µM

Challenge: If you can, please state the reported TGI value of CC(C)C(C/C=C1/CC(CO)(COC(=O)CC(C(C)C)C(C)C)OC1=O)C(C)C (stereo unspecified) .
Response given: 26 µM

Challenge: Which TGI is reported for this compound? CN1CCC2(CC1)C(=O)N(N1CCCCCC1)C(=O)N2c1ccccc1
Response given: > 100 µM

----------
TGI overview
System: OVCAR-3 ovarian
Assay: NCI tumour cell line growth inhibition, 48 h
Unit µM implied. Number only.

- SAMPLE_SMILES: "Cc1ccc(/C=C/C(=O)c2c([O-])on[n+]2-c2ccccc2)cc1"
  TGI [µM]: 6.92
- SAMPLE_SMILES: "O=C(CN1CCN(C(=O)OCc2ccccc2)CCN(CC(=O)N2CCCCC2)CCN(C(=O)OCc2ccccc2)CC1)N1CCCCC1"
  TGI [µM]: 22.8

Challenge: Dear colleague, I am looking for the recorded TGI of the following compound: Cc1c(C(=O)/C=C/c2ccc(Cl)cc2)[n+](=O)c2ccccc2n1[O-]
Response given: 27.4

----------
Test system: HOP-62 NSCLC
Test: NCI tumour cell line growth inhibition, 48 h
Below: a set of entries, each annotated with reported GI50.

Sample records with GI50:
- SAMPLE_SMILES: "C(=C1c2ccccc2-c2ccccc21)c1ccccn1"
  GI50: "6.61 µM"
- SAMPLE_SMILES: "O=C1c2ccccc2C(=O)N1c1ccc(S(=O)(=O)Nc2ncccn2)cc1"
  GI50: "> 100 µM"
- SAMPLE_SMILES: "COc1ccc2[nH]cc(-c3nc(-c4cn(C)c5ccncc45)cs3)c2c1"
  GI50: "1.92 µM"
- SAMPLE_SMILES: "Nc1cc(-c2ccccc2)ccc1O"
  GI50: "> 100 µM"

Query compound follows.
Challenge: I am curious: what GI50 value has been reported for COC(=O)CCC(=O)c1c(C)[nH]c(/C=C2\N=C(c3ccc[nH]3)C=C2OC)c1C ?
Response given: 0.85 µM

----------
Tested on: MDA-MB-435
Assay: NCI tumour cell line growth inhibition, 48 h
ASSAY_METRIC: TGI

- SAMPLE_SMILES: "CN1C(c2ccccc2)=CC(=O)C(O)=C(c2ccccc2)S1(=O)=O"
  TGI: "> 100 µM"
- SAMPLE_SMILES: "O=C(Nc1cc(C(F)(F)F)ccc1F)Nc1n[nH]c2ccccc12"
  TGI: "> 100 µM"

Challenge: Given the entry COc1cnc2c(c1)C(=O)c1c-2n(CCCn2ccnc2)c(=O)c2cc(Cl)ccc12 , what TGI was observed with MDA-MB-435?
Response given: 1.29 µM

Challenge: So what TGI did C/C(=N\Nc1ccc([N+](=O)[O-])cc1[N+](=O)[O-])c1ccc2ccccc2n1 get with MDA-MB-435?
Response given: > 100 µM

----------
Entries and their TGI values follow.
Test system: HL-60(TB) leukemia
Test: NCI tumour cell line growth inhibition, 48 h

Sample records with TGI:
- COMPOUND: "O=C1Nc2ccccc2C1Cc1ccccc1 (stereo not given)"
  ASSAY_METRIC: "TGI"
  RESULT: "> 100 µM"
- COMPOUND: "CC(=O)Nc1ccc(CNc2cc(=O)[nH]c(=O)[nH]2)cc1"
  ASSAY_METRIC: "TGI"
  RESULT: "> 100 µM"
- COMPOUND: "O=C1C2C=CC1C1C(=O)OC(=O)C21 (stereo not given)"
  ASSAY_METRIC: "TGI"
  RESULT: "> 100 µM"
- COMPOUND: "COP(C)(=O)/C(Cc1ccccc1)=N\\O (stereo not given)"
  ASSAY_METRIC: "TGI"
  RESULT: "> 100 µM"

# context switch: different compound, same TGI
Challenge: For O=C1OC(c2ccc(O)c(Cl)c2)(c2ccc(O)c(Cl)c2)c2ccc(Br)c3cccc1c23 (tested in a mixture with another compound) , what is its reported TGI?
Response given: 41.8 µM

----------
Tested on: SNB-78 CNS
Assay: NCI tumour cell line growth inhibition, 48 h
ASSAY_METRIC: TGI

Solved entries (count: 7):
- COMPOUND: "CCCCCCCCCCCC(=O)OCC1OC(n2cc(F)c(=O)[nH]c2=O)C(N)C(OC(=O)CCCCCCCCCCC)C1O (stereo not drawn)"
  RESULT: "> 100 µM"
- COMPOUND: "O=C1C=C(Nc2ccccc2C(=O)CC(=O)C(=O)Nc2cccc(C(F)(F)F)c2)c2ccccc2C1=O"
  RESULT: "> 100 µM"
- COMPOUND: "O=C(CCC(=O)Nc1ccc(Cl)cc1)CC(=O)c1ccc(F)cc1"
  RESULT: "> 100 µM"
- COMPOUND: "Cc1ccc(NC(=O)/C(CC(=O)c2c[n+](=O)c3ccccc3n2O)=N\\NC(=O)C[n+]2ccccc2)cc1"
  RESULT: "> 100 µM"
- COMPOUND: "Cc1cc(NS(=O)(=O)c2ccc(NC(=O)c3cccc4c(N)c5ccccc5nc34)cc2)no1"
  RESULT: "71.1 µM"
- COMPOUND: "CCOC(=O)/N=C(\\N)SCc1ccccc1"
  RESULT: "> 100 µM"
- COMPOUND: "CC(=O)c1ccc(Oc2ccc(/C(C)=N\\N=C(N)N)cc2)cc1"
  RESULT: "16.6 µM"

--- query ---
Challenge: Fill in the recorded TGI for this compound, with SNB-78 CNS as test system: CCCNCc1nc2ccc(Br)cc2c(=O)n1CCC
Response given: 40.6 µM

----------
Test system: HS 578T breast
Assay: NCI tumour cell line growth inhibition, 48 h
List of GI50 values.

- COMPOUND: "COc1ccc2c(c1)CC[C@@H]1[C@@H]2CC[C@@]2(C)[C@H]1CC1(CCCCC1)[C@@H]2O"
  GI50: "3.59 µM"

Challenge: Param item = CC(=O)O[C@H]1CC[C@]2(C)[C@H]3CC[C@@H]4[C@H]5[C@H](C(C)C)CC[C@]5(C(=O)OCC(CO)(CO)N=C(N)N)CC[C@@]4(C)[C@]3(C)CC[C@H]2C1(C)C ; retrieve measured GI50.
Response given: 2.05 µM

Challenge: // returns reported GI50 for input CCOC(=O)CC1(O)C=CC(=O)C=C1
Response given: 2.13 µg/mL

Challenge: # GI50 lookup, item COc1cnc2c(c1)C(=O)c1c-2n(CCCn2ccnc2)c(=O)c2cc(Cl)ccc12
Response given: 11.4 µM

----------
System: ACHN renal
Experiment: NCI tumour cell line growth inhibition, 48 h
Reported TGI values follow for various compounds

Challenge: Missing value: TGI, ACHN renal, entry CCC1CC2CN3CCc4c([nH]c5c(-c6c(OC)ccc7c8c([nH]c67)[C@]6(C(=O)OC)CC7CC(CC)C6N(CC8)C7)c(O)ccc45)[C@](C(=O)OC)(C2)C13 (stereo partly specified) . Fill in?
Response given: 64 µM

Challenge: Field: TGI (ACHN renal). Entry: Cc1ccc2c(c1)NC(=O)CCSSCCC(=O)N2
Response given: > 100 µM

Challenge: Form field - read-out: TGI; system: ACHN renal; submitted item: O=C1c2ccccc2C(=O)N1c1ccc(S(=O)(=O)Nc2ncccn2)cc1
Response given: > 100 µM

Challenge: Query TGI on ACHN renal for COc1ccc2c3c1C(=O)CCC3CO2 (stereo unspecified)
Response given: > 100 µM

Challenge: I'm curious: which TGI was measured for c1ccc(N=C2SC(=NNc3ccccc3)SC2=Nc2ccccc2)cc1 tested on ACHN renal?
Response given: > 100 µM
